Catalogue of MFI at 66.67 nM readings, one per entry.
Target: T1, human CTLA-4 (Y201V), full length, on transfected cells (human, UniProt P16410 36-223)
T1 construct: whole, on cells; also called hCTLA-4; HEK293-hCTLA-4 (Y201V)
T1 sequence (looked up): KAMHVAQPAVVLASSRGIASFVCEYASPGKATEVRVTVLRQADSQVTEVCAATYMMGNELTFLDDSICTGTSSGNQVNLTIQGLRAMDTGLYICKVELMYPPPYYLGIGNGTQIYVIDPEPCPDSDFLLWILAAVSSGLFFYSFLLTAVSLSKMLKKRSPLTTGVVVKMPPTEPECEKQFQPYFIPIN
Assay: FACS, CHOK1-hCTLA-4 cells
Write the value as a bare number.

Example results:
Query: Param item = 92C8B6 (chimeric antibody purified from hybridoma supernatant) (antibody, V domains shown, also called mAb42; mAb042) VH: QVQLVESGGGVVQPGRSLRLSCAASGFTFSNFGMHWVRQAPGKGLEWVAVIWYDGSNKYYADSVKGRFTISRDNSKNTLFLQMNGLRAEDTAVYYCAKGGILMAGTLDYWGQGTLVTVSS VL: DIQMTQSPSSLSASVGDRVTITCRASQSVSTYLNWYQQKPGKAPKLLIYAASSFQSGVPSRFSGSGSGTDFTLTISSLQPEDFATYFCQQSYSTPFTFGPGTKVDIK ; retrieve measured MFI at 66.67 nM.
Reply: 603

Query: Also 40C4C6 (chimeric antibody purified from hybridoma supernatant) (antibody, V domains shown, also called mAb09; mAb009) VH: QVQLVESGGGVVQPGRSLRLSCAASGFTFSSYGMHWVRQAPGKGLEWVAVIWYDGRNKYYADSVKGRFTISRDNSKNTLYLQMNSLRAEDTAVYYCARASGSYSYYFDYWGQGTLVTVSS VL: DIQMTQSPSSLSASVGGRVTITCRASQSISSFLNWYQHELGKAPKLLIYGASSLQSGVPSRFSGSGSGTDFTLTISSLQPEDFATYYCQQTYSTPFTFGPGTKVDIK ?
Reply: 449

Query: Item: 31C12F3 (chimeric antibody purified from hybridoma supernatant) (antibody, V domains shown, also called mAb010) VH: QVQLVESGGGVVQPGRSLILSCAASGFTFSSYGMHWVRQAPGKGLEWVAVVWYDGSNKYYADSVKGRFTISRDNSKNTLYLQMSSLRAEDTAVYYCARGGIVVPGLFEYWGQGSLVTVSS VL: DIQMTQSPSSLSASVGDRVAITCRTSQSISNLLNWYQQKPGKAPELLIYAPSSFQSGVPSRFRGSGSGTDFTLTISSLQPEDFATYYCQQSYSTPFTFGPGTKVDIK
Reply: 469

***
Query: // MFI at 66.67 nM lookup, key: 97A8D1 (chimeric antibody purified from hybridoma supernatant) (antibody, V domains shown, also called mAb49; mAb049) VH: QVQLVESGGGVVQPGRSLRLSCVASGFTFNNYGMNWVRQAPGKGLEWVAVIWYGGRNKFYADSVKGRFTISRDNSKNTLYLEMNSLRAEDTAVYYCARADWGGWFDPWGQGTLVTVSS VL: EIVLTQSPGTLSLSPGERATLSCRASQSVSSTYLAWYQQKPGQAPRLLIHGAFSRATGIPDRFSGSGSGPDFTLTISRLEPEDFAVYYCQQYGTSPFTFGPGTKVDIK
Reply: 617
